A collection of molecules and their measured IC50
assay_system: recombinant human Meningioma Expressed Antigen 5 (MGEA5), also referred to as O-GlcNAcase (OGA) (Homo sapiens)
Construct: Full length OGA enzyme was purchased at OnGene (cat #TP322411); purchased OnGene (so in the source)
test_protocol: OGA biochemical assay: inhibition of hydrolysis of fluorescein mono-ß-D-N-Acetyl-Glucosamine (FM-GlcNAc), fluorescence readout
conditions_used: FM-GlcNAc substrate, read-out: Enzymatic hOGA, pIC50 (converted)
Return type: number; implicit unit nM.

Examples with answers:
> print(dat)
                                   molecule  measured.result
1        CCCCn1ccc2c(Nc3c(Cl)cccc3Cl)nccc21             2.24
2         Cc1cncc(C)c1Nc1nccc2c1ccn2CCC1CC1             11.7
3  Cc1cc(Cl)cc(S(C)(=O)=O)c1Nc1nccc2c1ccn2CC1CC(F)(F)C1             23.4

Measured IC50 of Cc1ccnc(C)c1Nc1nccc2c1ccn2CC(F)(F)C(C)C : 3.09

Measured IC50 of Cc1ccnc(C)c1Nc1nccc2c1ccn2CCC(C)(C)C#N : 191

Measured IC50 of CCCC(C)n1ccc2c(Nc3c(C)cncc3C)nccc21 (stereo not shown) : 309

Measured IC50 of Cc1cncc(C)c1Nc1nccc2c1ccn2CC1COC1 : 1620

----------
assay_system: recombinant human Meningioma Expressed Antigen 5 (MGEA5), also referred to as O-GlcNAcase (OGA) (Homo sapiens, UniProt O60502)
Construct: Full length OGA enzyme was purchased at OnGene (cat #TP322411); purchased OnGene (so in the source)
Sequence (O60502 1-916): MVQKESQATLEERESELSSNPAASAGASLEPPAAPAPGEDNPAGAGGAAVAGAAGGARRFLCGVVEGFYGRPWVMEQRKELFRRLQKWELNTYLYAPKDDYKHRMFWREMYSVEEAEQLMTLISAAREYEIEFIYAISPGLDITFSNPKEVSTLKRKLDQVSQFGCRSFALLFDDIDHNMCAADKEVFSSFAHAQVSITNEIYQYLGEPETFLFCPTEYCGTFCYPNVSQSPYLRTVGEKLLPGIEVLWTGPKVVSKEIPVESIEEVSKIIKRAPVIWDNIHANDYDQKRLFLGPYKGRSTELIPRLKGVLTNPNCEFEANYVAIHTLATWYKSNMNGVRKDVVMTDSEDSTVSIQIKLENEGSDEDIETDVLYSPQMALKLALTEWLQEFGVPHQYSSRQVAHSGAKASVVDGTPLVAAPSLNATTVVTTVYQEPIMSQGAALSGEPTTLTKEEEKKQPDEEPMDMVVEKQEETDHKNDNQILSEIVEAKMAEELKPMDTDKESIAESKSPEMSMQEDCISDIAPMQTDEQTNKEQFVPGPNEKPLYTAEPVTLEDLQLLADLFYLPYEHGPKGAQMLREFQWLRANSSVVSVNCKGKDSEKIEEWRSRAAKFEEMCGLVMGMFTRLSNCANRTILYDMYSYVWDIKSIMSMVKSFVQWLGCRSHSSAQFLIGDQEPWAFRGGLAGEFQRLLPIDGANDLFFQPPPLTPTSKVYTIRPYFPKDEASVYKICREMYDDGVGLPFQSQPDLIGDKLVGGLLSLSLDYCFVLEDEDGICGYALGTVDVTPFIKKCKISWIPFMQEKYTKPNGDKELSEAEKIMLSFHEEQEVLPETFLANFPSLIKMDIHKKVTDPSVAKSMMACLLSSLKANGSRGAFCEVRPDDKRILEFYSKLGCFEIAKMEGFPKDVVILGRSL
test_protocol: OGA biochemical assay: inhibition of hydrolysis of fluorescein mono-ß-D-N-Acetyl-Glucosamine (FM-GlcNAc), fluorescence readout
conditions_used: FM-GlcNAc substrate, read-out: Enzymatic hOGA, pIC50 (converted)
A collection of molecules and their measured IC50
Return type: number; implicit unit nM.

Measured IC50 of Clc1cccc(Cl)c1Nc1nccc2c1ccn2Cc1ncco1 : 12

Measured IC50 of Clc1cccc(Cl)c1Nc1nccc2c1ccn2CC1CC1 : 3.39

Measured IC50 of Clc1cccc(Cl)c1Nc1nccc2c1ccn2Cc1ccon1 : 3.39

----------
assay_system: recombinant human Meningioma Expressed Antigen 5 (MGEA5), also referred to as O-GlcNAcase (OGA) (Homo sapiens, UniProt O60502)
Construct: Full length OGA enzyme was purchased at OnGene (cat #TP322411); purchased OnGene (so in the source)
Sequence (O60502 1-916): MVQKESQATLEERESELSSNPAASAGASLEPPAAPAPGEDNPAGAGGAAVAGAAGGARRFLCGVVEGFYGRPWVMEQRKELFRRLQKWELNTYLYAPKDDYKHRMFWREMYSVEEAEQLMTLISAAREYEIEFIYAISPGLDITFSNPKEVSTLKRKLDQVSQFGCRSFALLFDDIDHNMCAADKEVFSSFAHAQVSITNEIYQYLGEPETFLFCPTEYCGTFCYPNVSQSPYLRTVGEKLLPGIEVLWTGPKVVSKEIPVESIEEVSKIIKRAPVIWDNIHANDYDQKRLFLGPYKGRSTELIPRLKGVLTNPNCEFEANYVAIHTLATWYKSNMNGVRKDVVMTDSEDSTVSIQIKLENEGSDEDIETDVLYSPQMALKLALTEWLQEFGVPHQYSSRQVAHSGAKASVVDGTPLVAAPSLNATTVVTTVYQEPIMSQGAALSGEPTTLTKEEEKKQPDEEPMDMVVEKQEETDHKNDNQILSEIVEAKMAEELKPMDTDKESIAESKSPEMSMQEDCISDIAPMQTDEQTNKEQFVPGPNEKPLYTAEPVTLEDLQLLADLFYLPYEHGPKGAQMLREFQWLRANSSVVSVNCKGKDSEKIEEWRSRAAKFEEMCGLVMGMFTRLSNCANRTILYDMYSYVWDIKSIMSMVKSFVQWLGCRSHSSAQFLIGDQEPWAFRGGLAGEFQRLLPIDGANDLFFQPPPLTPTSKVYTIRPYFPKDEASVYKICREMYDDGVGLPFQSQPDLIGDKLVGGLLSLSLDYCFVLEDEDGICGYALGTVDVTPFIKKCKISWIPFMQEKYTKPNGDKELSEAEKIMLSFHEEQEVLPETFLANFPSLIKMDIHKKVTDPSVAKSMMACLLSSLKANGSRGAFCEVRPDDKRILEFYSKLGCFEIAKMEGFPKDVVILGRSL
test_protocol: OGA biochemical assay: inhibition of hydrolysis of fluorescein mono-ß-D-N-Acetyl-Glucosamine (FM-GlcNAc), fluorescence readout
conditions_used: FM-GlcNAc substrate, read-out: Enzymatic Emax (%)
A collection of compounds and their measured Emax
Return type: number; implicit unit %.

Examples with answers:
> print(dat)
                                   compound  endpoint.label  measured.result
1  CC[C@@H](O)Cn1ccc2c(Nc3c(C)cc(C#N)cc3Cl)nccc21 [Compound 123a]            Emax              102
2  CCn1ccc2c(Nc3c(C)cc(F)cc3C)nccc21 [Compound 37]            Emax              101

Please look at the following compound next.
Measured Emax of CCCCn1ccc2c(Nc3c(C)ccc(C(=O)N4CCCC4)c3C)nccc21 [Compound 55] : 103

----------
assay_system: recombinant human Meningioma Expressed Antigen 5 (MGEA5), also referred to as O-GlcNAcase (OGA) (Homo sapiens)
Construct: Full length OGA enzyme was purchased at OnGene (cat #TP322411); purchased OnGene (so in the source)
test_protocol: OGA biochemical assay: inhibition of hydrolysis of fluorescein mono-ß-D-N-Acetyl-Glucosamine (FM-GlcNAc), fluorescence readout
conditions_used: FM-GlcNAc substrate, read-out: Enzymatic Emax (%)
endpoint_label: Emax (%)
Return type: number; implicit unit %.

Examples with answers:
> print(dat)
                                   compound  unit.abbrev  measured.result
1  CCCCn1ccc2c(Nc3c(Cl)cc4c(c3C)OCCO4)nccc21 [Compound 76]            %              101
2  CCC(F)Cn1ccc2c(Nc3c(C)ccnc3C)nccc21 (stereo not shown) [Compound 78]            %              103
3  Cc1ccnc(C)c1Nc1nccc2c1ccn2CC1CCO1 (single isomer, unassigned) [Compound 25a]            %              102

Please look at the following compound next.
Measured Emax of Cc1ccnc(C(C)C)c1Nc1nccc2c1ccn2CC(C)(F)F [Compound 147] : 98.6

----------
assay_system: recombinant human Meningioma Expressed Antigen 5 (MGEA5), also referred to as O-GlcNAcase (OGA) (Homo sapiens)
Construct: Full length OGA enzyme was purchased at OnGene (cat #TP322411); purchased OnGene (so in the source)
Sequence (O60502 1-916): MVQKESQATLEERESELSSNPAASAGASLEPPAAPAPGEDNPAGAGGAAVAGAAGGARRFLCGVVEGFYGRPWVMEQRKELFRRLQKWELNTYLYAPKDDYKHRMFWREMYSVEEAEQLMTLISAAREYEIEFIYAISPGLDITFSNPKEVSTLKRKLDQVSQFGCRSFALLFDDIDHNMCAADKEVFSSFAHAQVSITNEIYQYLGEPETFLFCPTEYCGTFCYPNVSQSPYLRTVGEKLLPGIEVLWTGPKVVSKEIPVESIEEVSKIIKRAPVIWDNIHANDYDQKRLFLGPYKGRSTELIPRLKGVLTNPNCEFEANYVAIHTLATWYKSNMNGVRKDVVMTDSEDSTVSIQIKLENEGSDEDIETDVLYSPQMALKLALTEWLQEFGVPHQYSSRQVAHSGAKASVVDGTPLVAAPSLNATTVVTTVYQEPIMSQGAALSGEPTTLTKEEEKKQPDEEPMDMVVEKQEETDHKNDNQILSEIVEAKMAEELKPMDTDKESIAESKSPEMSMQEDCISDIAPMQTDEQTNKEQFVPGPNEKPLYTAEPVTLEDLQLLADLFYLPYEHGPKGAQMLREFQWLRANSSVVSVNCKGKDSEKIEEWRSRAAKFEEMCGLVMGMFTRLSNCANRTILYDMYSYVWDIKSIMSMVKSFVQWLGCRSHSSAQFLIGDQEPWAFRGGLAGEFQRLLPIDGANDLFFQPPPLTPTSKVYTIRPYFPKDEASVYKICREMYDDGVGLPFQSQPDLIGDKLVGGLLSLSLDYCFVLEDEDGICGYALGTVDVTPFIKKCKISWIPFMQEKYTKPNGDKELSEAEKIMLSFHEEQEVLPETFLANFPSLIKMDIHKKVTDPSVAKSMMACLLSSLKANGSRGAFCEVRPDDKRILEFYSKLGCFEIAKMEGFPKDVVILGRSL
test_protocol: OGA biochemical assay: inhibition of hydrolysis of fluorescein mono-ß-D-N-Acetyl-Glucosamine (FM-GlcNAc), fluorescence readout
conditions_used: FM-GlcNAc substrate, read-out: Enzymatic Emax (%)
Source text: The assay is based on the inhibition of the hydrolysis of fluorescein mono-ß-D-N-Acetyl-Glucosamine (FM-GlcNAc) (Mariappa et al. 2015, Biochem J 470:255) by the recombinant human Meningioma Expressed Antigen 5 (MGEA5), also referred to as O-GlcNAcase (OGA). […] The fluorescence of the latter can be measured at excitation wavelength 485 nm and emission wavelength 538 nm. An increase in enzyme activity results in an increase in fluorescence signal. […]
endpoint_label: Emax (%)
Return type: number; implicit unit %.

Examples with answers:
> print(dat)
                               query.smiles  unit.abbrev  measured.result
1      CCCCn1ccc2c(Nc3c(C)cnnc3C(C)C)nccc21            %              102
2  Cc1ccnc(C(F)(F)F)c1Nc1nccc2c1ccn2CCC1CC1            %              104
3         Cc1cncc(C)c1Nc1nccc2c1ccn2CCC(C)C            %              102

Measured Emax of Cc1ccnc(C)c1Nc1nccc2c1ccn2CC(F)(F)F : 101

Measured Emax of Cc1ccnc(C)c1Nc1nccc2c1ccn2CCC(C)(F)F : 102

Measured Emax of Fc1cc(Cl)c(Nc2nccc3c2ccn3-c2c[nH]cn2)c(Cl)c1 : 96.3

Measured Emax of Cc1ccc(-n2ccc3c(Nc4c(Cl)cccc4Cl)nccc32)nc1 : 101

Measured Emax of Cn1cnc(-n2ccc3c(Nc4c(Cl)cccc4Cl)nccc32)c1 : 102

Measured Emax of Cc1cccc(S(C)(=O)=O)c1Nc1nccc2c1ccn2CC1CC(F)(F)C1 : 99.3

Measured Emax of CCCCn1ccc2c(Nc3c(C)ccnc3C)ncc(F)c21 : 100

Measured Emax of Clc1cccc(Cl)c1Nc1nccc2c1ccn2CCC1CC1 : 103

Measured Emax of Cc1cnc(Cn2ccc3c(Nc4c(Cl)cc(F)cc4Cl)nccc32)o1 : 100

Measured Emax of CCCCn1ccc2c(Nc3c(C)cncc3C(C)C)nccc21 : 103

Measured Emax of CCCCn1ccc2c(Nc3c(C)ccnc3C)nccc21 : 102

Measured Emax of Clc1cccc(Cl)c1Nc1nccc2c1ccn2CC1COC1 : 100
